# credit: the PETadex activity labels (doi:10.1016/j.ijbiomac.2024.137732)

Proxy for plastic degradation: recorded values
Substrate: gfPET
test_details: Proxy for plastic degradation [Released monomer concentration (HPLC/LC-MS) (MHET+BHET+TPA)]
conditions: pH 9
readout_type: Proxy for plastic degradation (µM)

protein	measurement_units	assay_value
unnamed (protein) QTIEMAQSQIDKLAKIETDSLASYADSYTYDEEYFAENEPATIYYPKNLEGKVPAVIVVHGFNCKQKFLQKIPQHLSSHGFICITYTALDQKRPFQWPPGLMAAYEILRGESMRPDSPIYDHVDLDAVALVGHSMGGAGVLHTAMMPYPNGLRGKIKTVVGLNPYNGGPLMAEVGGGANDNLGDDLSHLDIPTMIVTGSYDIVAFPWKSFAFYNSLRGPAKHAFLSIDRMDHADWYFIPSEPKYPILRAILYSWLRAYLADDSEYRDYFVDRPGSSFDKYLKPLLSNTPNPLTRGGESFPPYVLSEEEDPLGTTN	µM	2.4
unnamed (protein) ASEQSTKNITNVTTESDVSVYRDLMLVAGKYVFYPADFETTTKKYPVVTWANGSWCPIQTYLPIIYGLVKAGYIVVADTDLLTDDGKSTVDSVSYIIKQNKNKNSMFYKRINTKQIGSTGHSLGGQAAVNASAKDSRIKAIVSLAGKSVADEAAKVTVPALYLSGTLDMIVPSKDYVYPSYKASKGPAAYASFNNMVHFGVWIAPGNYVKYTVAWFDVYLKGDKSKLSMFKKGGDLSTDDFWINYESKNL	µM	17.5
unnamed (protein) QELQENWWSNGKYAIEDVADPVYSFDEEYMKDVPNIYLPIGKTGKLPVVIVVHGWAAYKEQMHDTAQLLASHGMLVLVYTAMDQNQPFQWLDGIIAAYTLLEGENRRPGSKIHNRVDFQRIGLLGHSMGGTGVLFSAAMEKPNGLRGKIKTVVSLMPYHGTTNFISDAVAGGKDKLGCDVSATPNATLIISGEVDEVNEPIGGYEFYQTLTQNKRVFFSMKGTHHNDWRNKEGKESENYPIVMPVVSSWMLAYLCGERQYESFFKEGGLYFEKWIRPTLKGNVKVGRGEFPAFEIKEP	µM	4
unnamed (protein) QELQEDWWRTGKYAIEDIADPVYSLDEEYMRDTPNLYLPKGKTGKLPVVIVIHGWGGTKEQMQPTAQLLASHGMLVLNYTAVDQNQPFQWLDGLVAAYTLLEGENRRPGSKIYNRVDFQRIGLLGHSMGAAGVLHIAAMEKPNGLRGKIKTVVSMMPYHGTTSTFTDNIAGGKDKLGCDISSTPNATLIISAELDPTNEPIGGYEFYQTLKRNKRVFFSLKGAKHIDWMKERDKKYSVAMPVITAWMLTYLCGETQYESYFREGGHYFEKWVRETLKGNVKVGRGEFPAFEIKEP	µM	4
unnamed (protein) NADQFVQFESAAVKPTQFQERNARARGEAVNAVPGTPLQGYLTRPQGEGPFPAIVILHGCAGIHPSVKETWPERLASWGYVVLVVDSFSTRGIQNTCNNLLVDRVYDAYGALEFLSNYSFVDPKRIAVMGFSAGGIATLEAVQFGGAERLMEHKFKAAVAYYPICKAANGDMAVPTLVLVGDLDDWSPAEQCRTMMKQRSGAGSPVQLNVYKGAHHAFDAPEFKTGFEAYGHWIEYNGIAADQSVSDVHAFLRGVFGN	µM	3.8
